# study system: T1, human IL1RAP (hu-IL1RAP) on human cells (human, UniProt Q9NPH3 21-570)
# T1 sequence: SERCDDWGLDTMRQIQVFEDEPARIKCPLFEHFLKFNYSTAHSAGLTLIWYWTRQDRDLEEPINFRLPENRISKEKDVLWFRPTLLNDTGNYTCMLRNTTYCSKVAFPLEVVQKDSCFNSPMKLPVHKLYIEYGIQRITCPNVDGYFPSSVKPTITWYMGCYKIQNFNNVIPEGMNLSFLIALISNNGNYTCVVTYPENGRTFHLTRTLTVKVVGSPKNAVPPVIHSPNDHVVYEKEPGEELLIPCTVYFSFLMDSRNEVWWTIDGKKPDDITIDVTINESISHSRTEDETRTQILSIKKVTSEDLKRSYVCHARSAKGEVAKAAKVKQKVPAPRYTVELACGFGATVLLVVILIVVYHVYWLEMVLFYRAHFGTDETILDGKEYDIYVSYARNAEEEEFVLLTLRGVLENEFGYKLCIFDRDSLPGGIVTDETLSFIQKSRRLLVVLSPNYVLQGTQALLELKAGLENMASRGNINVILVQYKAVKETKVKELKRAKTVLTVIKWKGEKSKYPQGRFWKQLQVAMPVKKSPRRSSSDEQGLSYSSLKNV
# experiment notes: cell-based or functional assay
measurement kind: HEK-Blue, IL-1β, IC50 (IgG) (pM)
Write the number in pM without appending the unit.

Check out these entries, answers already filled in.
binder	assay result
K10 IgG (VL-A51Y) (antibody, V domains shown) VH: EVQLVESGGGLVQPGGSLRLSCAASGFTFSNYAMSWVRQAPGKGLEWVATVTEGGDYNYYLDDVKGRFTISRDNAKNSLYLQMNSLRAEDTAVYYCARDRWPYFFDYWGQGTLVTVSS VL: DIQMTQSPSSLSASVGDRVTITCRASENIYSNLAWYQQKPGKSPKLLVYGYKNLADGVPSRFSGSGSGTDYTLTISSLQPEDFATYYCQHFWTTPRTFGGGTKVEIK	230
h11C5 variant K17/H3 IgG (YKS) (antibody, V domains shown, Human IgG1 N297G; also called 11C5-YKS) VH: EVQLVESGGGLVQPGGSLRLSCAASGFTFSNYAMSWVRQAPGKGLEWVATSTEGGDYNYYLDDVKGRFTISRDNAKNSLYLQMNSLRAEDTAVYYCARDRWPYFFDYWGQGTLVTVSS VL: DIQMTQSPSSLSASVGDRVTITCRASENIYSNLAWYQQKPGKSPKLLVYGYKNLADGVPSRFSGSGSGTDYTLTISSLQPEDFATYYCQHFKTTPRTFGGGTKVEIKR	429

The record that follows has no HEK-Blue, IL-1β, IC50 (IgG) shown yet.
Prompt: I have this binder here, Parent IgG Ab (full-length IgG of h11C5_C59Y/A43S) (antibody, V domains shown) VH: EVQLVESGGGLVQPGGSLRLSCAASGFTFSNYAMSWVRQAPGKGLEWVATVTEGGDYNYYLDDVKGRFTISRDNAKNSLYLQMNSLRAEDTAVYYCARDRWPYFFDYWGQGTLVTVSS VL: DIQMTQSPSSLSASVGDRVTITCRASENIYSNLAWYQQKPGKSPKLLVYGAKNLADGVPSRFSGSGSGTDYTLTISSLQPEDFATYYCQHFWTTPRTFGGGTKVEIK , and I need its recorded HEK-Blue, IL-1β, IC50 (IgG).
Completion: 363

From: patent US20260015426A1
